Each item that follows carries a reported viability, T/C.
# Tested on: 276233-004-R-J1-PDC complex spheroid viability;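 note: spheroids exposed to drugs for seven days; 100% = DMSO vehicle control viability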
# test method notes: Anticancer human tumor 276233-004-R-J1-PDC patient-derived colon adenocarcinoma cell line growth inhibition [GQUAD]
# cond: second compound 3.16 µM; first compound 1 µM; active compounds read low
Give just the numeric value; % need not be written.

COc1cc(C2c3cc4c(cc3C(OC3OC5COC(C)OC5C(O)C3O)C3COC(=O)C23)OCO4)cc(OC)c1O (configuration not stated) + Cc1[nH]c2ccc(F)cc2c1-c1nc2c3cccnc3c3ncccc3c2[nH]1: 65.7

Consider the additional molecule presented here.
Return viability, T/C for the following molecule: CC(=O)O[C@H]1C(=O)[C@@]2(C)[C@H]([C@H](OC(=O)c3ccccc3)[C@]3(O)C[C@H](OC(=O)[C@H](O)[C@@H](NC(=O)c4ccccc4)c4ccccc4)C(C)=C1C3(C)C)[C@]1(OC(C)=O)CO[C@@H]1C[C@@H]2O + Cc1[nH]c2ccc(F)cc2c1-c1nc2c3cccnc3c3ncccc3c2[nH]1
12.3
